Target system: T1, human RANK-L (human, UniProt O14788 140-317, limits assumed)
T1 construct: Soluble protein, used coated, biotinylated or labelled in ELISA, AlphaScreen, FMAT and Biacore; also called hRANK-L; soluble human RANK-L
T1 sequence (looked up): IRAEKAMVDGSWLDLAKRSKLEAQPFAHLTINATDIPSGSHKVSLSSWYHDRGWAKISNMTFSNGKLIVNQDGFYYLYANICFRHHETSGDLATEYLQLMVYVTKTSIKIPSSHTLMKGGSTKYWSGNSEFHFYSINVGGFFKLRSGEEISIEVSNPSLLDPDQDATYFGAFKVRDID
Procedure details: SPR Biacore 3000, hRANK-L on CM5, 100 nM Nanobody; only indicative (one concentration)
Experimental readout: Kd (nM)

# Binder, Value units, Kd
rows = [
    ("RANKL13hum4 (VHH, name in Kabat numbering) VHH: EVQLVESGGGLVQPGGSLRLSCAASGRTFRSYPMGWFRQAPGKGREFVASITGSGGSTYYADSVKGRFTISRDNAKNTLYLQMNSLRPEDTAVYYCAAYIRPDTYLSRDYRKYDYWGQGTLVTVSS", "nM", 0.538),
    ("RANKL13hum3 (VHH, name in Kabat numbering, also called RANL13hum3) VHH: EVQLVESGGGLVQPGGSLRLSCAASGRTFRSYPMGWFRQAPGKGREFVSSITGSGGSTYYADSVKGRFTISRDNAKNTLYLQMNSLRPEDTAVYSCAAYIRPDTYLSRDYRKYDYWGQGTLVTVSS", "nM", 0.264),
]

1 = RANKL18 (VHH, not shown: small tags and cut ends) VHH: EVQLVESGGGLVQAGGSLRLSCAASGRTFSRSAMGWFRQAPGKEREFVGFITGSGGTTYYGESVKGRFTISRDNAQNPVYLQMNSLKPEDTAVYYCGVYRRTYISSTYSESSEYDYWGQGTQVTVSS
2 = RANKL13 (VHH, not shown: small tags and cut ends) VHH: EVQLVESGGGLVQAGGSLRLSCAASGRTFRSYPMGWFRQAPGKEREFVASITGSGGSTYYADSVKGRFTISRDNAKNTVYLQMNSLRPEDTAVYSCAAYIRPDTYLSRDYRKYDYWGQGTQVTVSS
Could you determine which record has the numerically smaller Kd? Candidates: 1 and 2 Selection: enter the item's label.
1
(1: 0.18 nM, 2: 0.5 nM)
